B1: library; numbered along this chain (parent)
chain: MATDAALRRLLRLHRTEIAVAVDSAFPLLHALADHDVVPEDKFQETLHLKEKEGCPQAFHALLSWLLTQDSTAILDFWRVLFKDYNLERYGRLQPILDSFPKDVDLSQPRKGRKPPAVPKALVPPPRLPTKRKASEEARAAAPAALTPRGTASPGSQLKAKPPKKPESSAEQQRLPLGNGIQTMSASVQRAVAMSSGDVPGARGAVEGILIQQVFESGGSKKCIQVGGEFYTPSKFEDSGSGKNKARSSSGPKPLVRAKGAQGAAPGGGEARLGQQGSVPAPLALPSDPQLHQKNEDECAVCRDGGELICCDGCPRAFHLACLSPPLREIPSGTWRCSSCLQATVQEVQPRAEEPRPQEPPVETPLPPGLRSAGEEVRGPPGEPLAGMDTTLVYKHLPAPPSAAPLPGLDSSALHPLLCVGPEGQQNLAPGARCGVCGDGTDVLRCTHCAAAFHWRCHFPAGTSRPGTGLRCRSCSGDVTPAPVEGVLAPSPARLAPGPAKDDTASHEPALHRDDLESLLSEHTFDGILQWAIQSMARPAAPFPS

variants of: B1; assay: AIRE transcriptional activation functional score (insulin promoter-GFP; nonsense median 0, synonymous median 1) (normalised score); higher = higher AIRE activity (more reporter activation); conditions: with insulin promoter-GFP reporter in HEK293
Classify by AIRE transcriptional activation functional score. Ranges: 1 = under 0.5, 2 = from 0.5 up to 1, 3 = 1 and over

Please review the entries below; each comes with its answer.
[
  {
    "mutationAnnotation": "D84R",
    "category": 2
  },
  {
    "mutationAnnotation": "V38D",
    "category": 1
  },
  {
    "mutationAnnotation": "D478E",
    "category": 3
  },
  {
    "mutationAnnotation": "I96L",
    "category": 2
  }
]

INPUT: Hi there! Could you help me figure out the category for S195P please?
OUTPUT: 2

INPUT: Hi there! Could you help me figure out the category for P416D please?
OUTPUT: 1

INPUT: Hi there! Could you help me figure out the category for L87V please?
OUTPUT: 2

INPUT: Hi there! Could you help me figure out the category for A186W please?
OUTPUT: 1

INPUT: Hi there! Could you help me figure out the category for L273M please?
OUTPUT: 3
